Values were extracted from the kinase profiling compilation of Christmann-Franck et al. (2016).

Item-by-item account of kinase still bound, per cent of control
- ASSAYED_TARGET: PIP4K2B (human) (UniProt P78356)
- Sequence (P78356 whole entry, looked up): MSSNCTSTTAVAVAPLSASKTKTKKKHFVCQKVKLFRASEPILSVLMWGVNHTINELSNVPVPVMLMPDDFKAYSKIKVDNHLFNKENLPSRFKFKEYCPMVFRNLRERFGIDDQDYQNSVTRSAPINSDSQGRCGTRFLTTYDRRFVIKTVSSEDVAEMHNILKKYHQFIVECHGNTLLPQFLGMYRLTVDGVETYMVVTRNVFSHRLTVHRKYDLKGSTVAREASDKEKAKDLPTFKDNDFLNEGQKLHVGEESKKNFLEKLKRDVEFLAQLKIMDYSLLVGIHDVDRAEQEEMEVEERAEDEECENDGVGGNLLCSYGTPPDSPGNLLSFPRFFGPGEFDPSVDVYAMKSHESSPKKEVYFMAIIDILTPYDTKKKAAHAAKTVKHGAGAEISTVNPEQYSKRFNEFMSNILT
- METHOD_SUMMARY: KINOMEscan competition binding
- MEASUREMENT_PARAMETERS: compound 10.0 µM
PROPERTY_LABEL: kinase still bound, per cent of control (%)

{"SMILES_DATA": "CCN1CCN(C(=O)Cc2ccc(Nc3ncc(F)c(Nc4ccc(C(=O)Nc5ccccc5Cl)cc4)n3)cc2)CC1", "VALUE_OBSERVED": 1.6}
{"SMILES_DATA": "C[C@@H](Oc1cc(-c2cnn(C3CCNCC3)c2)cnc1N)c1c(Cl)ccc(F)c1Cl", "VALUE_OBSERVED": 3.8}
{"SMILES_DATA": "COc1cc2ncn(-c3cc(OCc4ccccc4C(F)(F)F)c(C(N)=O)s3)c2cc1OC", "VALUE_OBSERVED": 6.6}
{"SMILES_DATA": "COc1ccc(N(C(=O)Oc2c(C)cccc2C)c2ccnc(Nc3ccc(N4CCN(C)CC4)cc3)n2)c(OC)c1", "VALUE_OBSERVED": 5.4}
{"SMILES_DATA": "CN(C)C/C=C/C(=O)Nc1ccc(C(=O)Nc2cccc(Nc3nccc(-c4cccnc4)n3)c2)cc1", "VALUE_OBSERVED": 56}
{"SMILES_DATA": "CNC(=O)c1ccc(Nc2cc(Nc3ccccc3S(=O)(=O)C(C)C)c3cc[nH]c3n2)nc1", "VALUE_OBSERVED": 3.8}
{"SMILES_DATA": "COc1cc(N2CCN(C)CC2)ccc1Nc1ncc2c(n1)N(C)c1ccccc1C(=O)N2C", "VALUE_OBSERVED": 100}
{"SMILES_DATA": "CCN(CC)CCCCNc1ncc2c(n1)N(C)C(=O)N(c1c(Cl)c(OC)cc(OC)c1Cl)C2", "VALUE_OBSERVED": 100}
